tested on: Mycobacterium tuberculosis; experiment: Ability to inhibit 100%growth against Mycobacterium tuberculosis H37Rv in Youman's medium; type: functional, organism-based
Give Concentration for every item shown.
Answer with a number only, understood to be in µg/mL.

-- ask State its Concentration for this compound: CN(CC(=O)NN)c1ccc2ccccc2c1
-- reply 10

-- ask State its Concentration for this compound: COc1ccc2cc(NCC(=O)NN)ccc2c1
-- reply 10

-- ask State its Concentration for this compound: NNC(=O)CNc1ccc2ccccc2c1
-- reply 1

-- ask State its Concentration for this compound: CN(CC(=O)N/N=C/c1ccncc1)c1ccc2ccccc2c1
-- reply 10

-- ask State its Concentration for this compound: CC(CC(=O)NN)Nc1ccc2ccccc2c1 (stereo unspecified)
-- reply 10

-- ask State its Concentration for this compound: O=C(O)CNc1ccc2ccccc2c1
-- reply 1000
